# Test system: RXF 393 renal
# Assay remarks: NCI tumour cell line growth inhibition, 48 h; in the data active means GI50 below about 0.43 µM; inactive means the rest
Labels: active, inactive

Molecule: O=C(N/N=C/c1coc2ccc(Cl)cc2c1=O)c1cc(O)c(O)c(O)c1
Assay target: RXF 393 renal
Class name: inactive
//
Molecule: O=C1/C(=C/c2ccc([N+](=O)[O-])s2)Oc2ccc(Br)cc21
Assay target: RXF 393 renal
Class name: active
//
Molecule: Nc1ncnc2c1ncn2C1OC(F)(COS(N)(=O)=O)C(O)C1O (stereo unspecified)
Assay target: RXF 393 renal
Class name: inactive
//
Molecule: O=C(Nc1cccc2[nH]c(C(F)(F)F)nc12)c1ccc(Br)cc1F
Assay target: RXF 393 renal
Class name: inactive
//
Molecule: CCOC(=O)c1c(C)n(Cc2ccc(Cl)cc2Cl)c2c1cc(O)c1[nH]c(Cc3ccccc3)nc12
Assay target: RXF 393 renal
Class name: inactive
//
Molecule: Cc1cc(N)c2cc(NC(=O)/C=C\c3ccccc3Cl)ccc2n1
Assay target: RXF 393 renal
Class name: inactive

---

The reader will find reported TGI values listed item by item below.
# Tested on: NCI-H23 lung
# Assay remarks: NCI tumour cell line growth inhibition, 48 h
Measurement name: TGI (µM)

Compound: COC(=O)c1cc2c3cc(Cl)ccc3[nH]c2c2ncccc12
Assay target: NCI-H23 lung
Measurement name: TGI
Unit descriptor: µM
Censoring operator: >
Recorded measurement: 100
//
Compound: CC(=O)CC(=O)Nc1ccc(OS(N)(=O)=O)cc1
Assay target: NCI-H23 lung
Measurement name: TGI
Unit descriptor: µM
Censoring operator: >
Recorded measurement: 100
//
Compound: COc1cc(/C=C/C(=O)c2cccc(-n3cc(-c4ccccc4)[nH]c3=O)c2)ccc1O
Assay target: NCI-H23 lung
Measurement name: TGI
Unit descriptor: µM
Censoring operator: =
Recorded measurement: 11.6
//
Compound: O=C(N/N=C/c1cc(Cl)cc(Cl)c1[O-])c1ccccc1O.O=C(N/N=C/c1cc(Cl)cc(Cl)c1[O-])c1ccccc1O.[Mn+2]
Assay target: NCI-H23 lung
Measurement name: TGI
Unit descriptor: µM
Censoring operator: =
Recorded measurement: 6.31
//
Compound: COc1ccc(-c2cc(-c3ccco3)c(C#N)c(=O)n2C2OC(COC(C)=O)C(OC(C)=O)C(OC(C)=O)C2OC(C)=O)cc1 (stereo not given)
Assay target: NCI-H23 lung
Measurement name: TGI
Unit descriptor: µM
Censoring operator: >
Recorded measurement: 100
//
Compound: CCOC(=O)c1c(C)n(Cc2ccc(Cl)cc2Cl)c2c1cc(O)c1[nH]c(Cc3ccccc3)nc12
Assay target: NCI-H23 lung
Measurement name: TGI
Unit descriptor: µM
Censoring operator: =
Recorded measurement: 10.6
//
Compound: ON[C@@H]1C=C[C@H](n2cnc3c(NC4CC4)ncnc32)C1
Assay target: NCI-H23 lung
Measurement name: TGI
Unit descriptor: µM
Censoring operator: >
Recorded measurement: 100
//
Compound: COc1cccc(C2c3cc4c(cc3OC(N3CCCC3)C2c2ccccc2)OCO4)c1O (stereo not given)
Assay target: NCI-H23 lung
Measurement name: TGI
Unit descriptor: µM
Censoring operator: =
Recorded measurement: 36.2
//
Compound: O=C(NC1C(=O)NC(CCc2ccccc2)NC1=O)OCc1ccccc1 (stereo not given)
Assay target: NCI-H23 lung
Measurement name: TGI
Unit descriptor: µM
Censoring operator: >
Recorded measurement: 100
//
Compound: CN(C)Cc1nsc(N(C)C)n1
Assay target: NCI-H23 lung
Measurement name: TGI
Unit descriptor: µM
Censoring operator: >
Recorded measurement: 100

---

# Tested on: NCI-H460 lung
# Assay remarks: NCI tumour cell line growth inhibition, 48 h

Molecule: CN(C)Cc1c[nH]c2nc[nH]c(=O)c12
Unit descriptor: µM
Censoring operator: =
TGI: 61
//
Molecule: CC1(C)COC(c2cccc(C(=O)c3ccccc3)c2)=N1
Unit descriptor: µM
Censoring operator: >
TGI: 100
//
Molecule: CC1=CC2=C(C=O)C(=O)[C@](C)(O)[C@@H](O)C2=CO1
Unit descriptor: µM
Censoring operator: >
TGI: 100
//
Molecule: O=C1Nc2ccccc2C1(O)Cc1ccccn1 (configuration not stated)
Unit descriptor: µM
Censoring operator: >
TGI: 100
//
Molecule: CCCCCCCCCCCCNCCCc1ccccc1
Unit descriptor: µM
Censoring operator: =
TGI: 3.4
//
Molecule: CN(C)c1ccc(-c2nc(N)nc3c2CCCC3)cc1
Unit descriptor: µM
Censoring operator: >
TGI: 100
//
Molecule: O=[N+]([O-])c1cc2c(ccc3ccccc32)o1
Unit descriptor: µM
Censoring operator: =
TGI: 1.06
//
Molecule: CCOC(=O)/C(=C\n1c(=O)sc2ccccc21)C(=O)c1ccccc1
Unit descriptor: µM
Censoring operator: >
TGI: 100
//
Molecule: CCCCCCCCC#CCCCCCCC(F)C(=O)O (configuration not stated)
Unit descriptor: µM
Censoring operator: >
TGI: 100
//
Molecule: COc1cccc(/C=C2\COc3ccc(O)c(O)c3C2=O)c1OC
Unit descriptor: µM
Censoring operator: =
TGI: 7.12
//
Molecule: O=C1/C(=C/c2ccccc2)CN(C(=O)/C=C/c2ccccc2)C/C1=C\c1ccccc1
Unit descriptor: µM
Censoring operator: =
TGI: 39.3
//
Molecule: CCSc1c2cc(OC)ccc2nc2ccc(OC)cc12
Unit descriptor: µM
Censoring operator: =
TGI: 60.4

---

# Test system: UO-31 renal
# Assay remarks: NCI tumour cell line growth inhibition, 48 h
// GI50 lookup, one value per entry

Compound: COc1cc(/C=C2\CC3C4CC=C5C[C@@H](N6CCCC6)CC[C@]5(C)C4CC[C@]3(C)[C@H]2OC(C)=O)ccc1OCCCn1ccnc1 (stereo not given in full)
GI50: 2010 nM

Compound: Cc1cc(N)c2cc(NC(=O)/C=C\c3ccccc3Cl)ccc2n1
GI50: 1780 nM

Compound: O=C1C=CC(=O)N1c1ccc2ccccc2c1
GI50: 12400 nM

Compound: CCOC(=O)CCC(NC(=O)c1ccc(Oc2nc3cc(N)cc(N)c3nc2-c2ccccc2)cc1)C(=O)OCC (stereo not given)
GI50: 48700 nM

Compound: COc1cc(/C=C/C(=O)c2cccc(-n3cc(-c4ccccc4)[nH]c3=O)c2)ccc1O
GI50: 2010 nM

Compound: CC(C)C[C@H](NC(=O)[C@@H](N)Cc1cccc2ccccc12)B(O)O
GI50: 739 nM

Compound: C=CCn1c(C)nc2cc(Nc3nc(N4CCCC4)nc4nc[nH]c34)ccc21
GI50: > 100000 nM

Compound: O=C1/C(=C/c2ccc([N+](=O)[O-])s2)Oc2ccc(Br)cc21
GI50: 166 nM

Compound: O=C(/C=C/c1cccc(Cl)c1)c1ccccc1
GI50: 6550 nM

Compound: CCc1n(Cc2ccc3ccccc3c2)cc[n+]1Cc1ccc2ccccc2c1
GI50: 2220 nM

---

# System: SK-MEL-28 melanoma
# Assay remarks: NCI tumour cell line growth inhibition, 48 h
Catalogue of TGI readings, one per entry.

Compound: c1ccc2c(c1)n1c(N3CCCC3)[n+]3ccccc3c1c1c3cccc[n+]3c(N3CCCC3)n21
Assay target: SK-MEL-28 melanoma
TGI: > 100 µM

Compound: Cc1nc2sc(C(=O)Nc3cccc4c3OCCO4)c(N)c2cc1C(C)O (stereo not given)
Assay target: SK-MEL-28 melanoma
TGI: > 100 µM

Compound: COc1cc(/C=C/C(=O)c2cccc(-n3cc(-c4ccccc4)[nH]c3=O)c2)ccc1O
Assay target: SK-MEL-28 melanoma
TGI: 3.07 µM

Compound: CCc1cccc(CC)c1Nc1nc(-c2ccccc2-c2ccccc2)cs1
Assay target: SK-MEL-28 melanoma
TGI: > 100 µM

Compound: CCn1cnc(C[C@H](NC(=O)[C@@H](NC(=O)Nc2cc(C(F)(F)F)cc(C(F)(F)F)c2)C(C)(C)C)C(=O)OC)c1
Assay target: SK-MEL-28 melanoma
TGI: > 10 µM

Compound: CC(=O)O[C@H]1[C@@H](N2CCCCC2)C[C@H]2[C@@H]3CC=C4C[C@@H](N5CCCC5)CC[C@]4(C)[C@H]3CC[C@@]21C
Assay target: SK-MEL-28 melanoma
TGI: 48.9 µM

Compound: Cc1cc(NS(=O)(=O)c2ccc(NC(=O)c3ccc4nc5ccccc5c(Nc5ccc(S(N)(=O)=O)cc5)c4c3)cc2)no1
Assay target: SK-MEL-28 melanoma
TGI: 50.7 µM

Compound: Nc1ccccc1SC(CC(=O)c1ccccc1)c1c(Cl)cccc1Cl (stereo not given)
Assay target: SK-MEL-28 melanoma
TGI: 23.9 µM

Compound: Oc1ccc(Br)cc1C=Nc1ccc(Oc2ccc(N=Cc3cc(Br)ccc3O)cc2)cc1
Assay target: SK-MEL-28 melanoma
TGI: > 19.6 µM

Compound: O=c1oc2cc(O)ccc2cc1-c1nc2ccccc2o1
Assay target: SK-MEL-28 melanoma
TGI: > 100 µM

Compound: CCSc1c2cc(OC)ccc2nc2ccc(OC)cc12
Assay target: SK-MEL-28 melanoma
TGI: > 59.2 µM

Compound: COc1ccc2[nH]c(=O)cc(C)c2c1[N+](=O)[O-]
Assay target: SK-MEL-28 melanoma
TGI: > 100 µM

Compound: O=C1OC(=O)c2c1cc1cc3c(cc1c2-c1ccc2c(c1)OCO2)OCO3
Assay target: SK-MEL-28 melanoma
TGI: > 100 µM

Compound: COc1cc(C2c3cc4c(cc3[C@@H](Nc3cnc5ccccc5c3)C3COC(=O)[C@H]23)OCO4)cc(OC)c1O (stereo not given in full)
Assay target: SK-MEL-28 melanoma
TGI: 3.85 µM

Compound: CC(=O)NC1=C(NCCO)C(=O)c2ccccc2C1=O
Assay target: SK-MEL-28 melanoma
TGI: > 50 µM

Compound: CC(=O)OC1C(C)OC(Oc2c(-c3ccc(O)cc3)oc3cc(O)cc(O)c3c2=O)C(O)C1OC(C)=O (stereo not given)
Assay target: SK-MEL-28 melanoma
TGI: > 100 µM

Compound: CCCOC(=O)C1C(c2ccc(OC)cc2)NC(c2ccc(OC)cc2)C(C(=O)OCCC)S1(=O)=O (stereo not given)
Assay target: SK-MEL-28 melanoma
TGI: > 100 µM

Compound: Cc1c2cnccc2c(C)c2c1c1ccccc1n2CCCCCCCl
Assay target: SK-MEL-28 melanoma
TGI: > 50 µM

Compound: O=C(O)C(C1NCCS1)N1C(=O)c2ccccc2C1=O (stereo not given)
Assay target: SK-MEL-28 melanoma
TGI: > 100 µM

Compound: O=C1CC2=CCCC2O1 (stereo not given)
Assay target: SK-MEL-28 melanoma
TGI: > 100 µM
